B1: library; a variant is named by its letters at N, in order (parent)
chain: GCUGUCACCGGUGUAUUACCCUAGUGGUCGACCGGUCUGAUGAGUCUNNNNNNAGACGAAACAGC

Variants of: B1
Procedure text: normalized RNA/DNA level without ligand (relative to sTRSVctl = 100) (log10 (% of sTRSVctl)); ligand: hypoxanthine (xanthine aptamer); higher = less ribozyme self-cleavage, higher mRNA level
Experimental conditions: HEK293T, reporter: mCherry (pCS4076), ligand present: no
Property name: normalized RNA/DNA level without ligand (log10)

1) CCUGGG    1.51
2) UUGGUA    1.89
3) AGAGUU    1.83
4) CCCCAG    1.77
5) CGGUAC    1.54
6) UAUAUG    1.72
7) UGGUCG    1.79
8) UAACUG    1.64
9) CCUGGU    1.88
10) UAUAUA    1.84
11) UGGUUG    1.79
12) UACCAG    1.59
13) UGCUCC    1.94
14) UGGCCG    1.96
15) CACCAA    1.79
16) GACUAU    1.83
17) CUGGGA    1.86
18) UAAUCA    1.89
19) GCCUAG    1.5
20) CGUAUA    1.64
21) UUGCGU    1.82
22) AGCACC    1.84

These data points were gathered from the supplement of paper PMC6757056.
